# Tested on: Enterovirus C
# Experiment description: Antiviral activity against Poliovirus 10225 serotype PV1 obtained from immunodeficient chronic excretor infected in […] LLC-MK2 cells assessed as inhibition of viral-replication induced cytopathic effect
# Assay type: functional, organism-based
# Test conditions: 10225 serotype PV1, LLC-MK2
Reported metric: pEC50
Scale note: pEC50 = -log10(concentration in M).

Item COc1ccc(OCc2ccc(COc3c(Cl)cccc3Cl)cc2)c(Cl)c1 has what recorded pEC50?
7.77

----------
# System: Enterovirus C
# Experiment description: Antiviral activity against Poliovirus 10805 serotype PV3 infected in […] LLC-MK2 cells assessed as inhibition of viral-replication induced cytopathic effect
# Format: functional, organism-based
# Test conditions: 10805 serotype PV3, LLC-MK2
Reported metric: EC50 (nM)
The figure you give is taken to be in nM; do not add the unit.

Item COc1ccc(OCc2ccc(COc3c(Cl)cccc3Cl)cc2)c(Cl)c1 has what recorded EC50?
29

----------
# Test system: Enterovirus C
# Experiment description: Antiviral activity against Poliovirus Saukett serotype PV3 infected in […] LLC-MK2 cells assessed as inhibition of viral-replication induced cytopathic effect
# Format: functional, organism-based
Reported metric: EC50 (nM)
The figure you give is taken to be in nM; do not add the unit.

Item COc1ccc(OCc2ccc(COc3c(Cl)cccc3Cl)cc2)c(Cl)c1 has what recorded EC50?
62

----------
# System: Coxsackievirus B2
# Experiment description: Antiviral activity against Coxsackievirus serotype B2 infected in african green monkey BGMK cells assessed as inhibition of virus induced cytopathic effect after 18 to 24 hrs
# Assay type: functional, organism-based
# Test conditions: Enterovirus B
Reported metric: EC50 (µM)
The figure you give is taken to be in µM; do not add the unit.

// lookup EC50 | system=Coxsackievirus B2 | key= COc1ccc(OCc2ccc(COc3c(Cl)cccc3Cl)cc2)c(Cl)c1
3.79

----------
# Test system: Enterovirus A71
# Experiment description: Antiviral activity against Enterovirus serotype 71 infected in african green monkey BGMK cells assessed as inhibition of virus induced cytopathic effect after 18 to 24 hrs
# Type: functional, organism-based
# Test conditions: Enterovirus A, BGMK
Reported metric: pEC50
Scale note: pEC50 = -log10(concentration in M).

Item COc1ccc(OCc2ccc(COc3c(Cl)cccc3Cl)cc2)c(Cl)c1 has what recorded pEC50?
5.46

----------
# System: Enterovirus C
# Experiment description: Antiviral activity against Poliovirus 10239 serotype PV1 obtained from circulating vaccine infected in […] LLC-MK2 cells assessed as inhibition of viral-replication induced cytopathic effect
# Format: functional, organism-based
# Test conditions: 10239 serotype PV1, LLC-MK2
Reported metric: pEC50
Scale note: pEC50 = -log10(concentration in M).

Item COc1ccc(OCc2ccc(COc3c(Cl)cccc3Cl)cc2)c(Cl)c1 has what recorded pEC50?
7.85

----------
# Test system: Enterovirus C
# Experiment description: Antiviral activity against Poliovirus P712 serotype PV2 vaccine-derived infected in […] LLC-MK2 cells assessed as inhibition of viral-replication induced cytopathic effect
# Type: functional, organism-based
Reported metric: pEC50
Scale note: pEC50 = -log10(concentration in M).

Item COc1ccc(OCc2ccc(COc3c(Cl)cccc3Cl)cc2)c(Cl)c1 has what recorded pEC50?
8.52

----------
# Experiment description: Selectivity index, ratio of CC50 for african green monkey BGMK cells to EC50 for poliovirus
# Type: toxicity, cell-based
# Test conditions: read-out: Ratio CC50/EC50
Reported metric: selectivity ratio
Kindly provide the number alone.

Item COc1ccc(OCc2ccc(COc3c(Cl)cccc3Cl)cc2)c(Cl)c1 has what recorded selectivity ratio?
75

----------
# Tested on: Enterovirus C
# Experiment description: Antiviral activity against Poliovirus 10690 serotype PV1 obtained from circulating vaccine infected in […] LLC-MK2 cells assessed as inhibition of viral-replication induced cytopathic effect
# Type: functional, organism-based
# Test conditions: 10690 serotype PV1, LLC-MK2
Reported metric: EC50 (nM)
The figure you give is taken to be in nM; do not add the unit.

Item COc1ccc(OCc2ccc(COc3c(Cl)cccc3Cl)cc2)c(Cl)c1 has what recorded EC50?
29

----------
# Experiment description: Solubility of the compound
# Format: physicochemical
Reported metric: solubility
Your answer should be a number followed by the unit of measure.

Item COc1ccc(OCc2ccc(COc3c(Cl)cccc3Cl)cc2)c(Cl)c1 has what recorded solubility?
14 µM

----------
# Test system: Enterovirus C
# Experiment description: Antiviral activity against Poliovirus Mahoney serotype PV1 infected in […] LLC-MK2 cells assessed as inhibition of viral-replication induced cytopathic effect
# Type: functional, organism-based
Reported metric: EC50 (nM)
The figure you give is taken to be in nM; do not add the unit.

// lookup EC50 | system=Enterovirus C | key= COc1ccc(OCc2ccc(COc3c(Cl)cccc3Cl)cc2)c(Cl)c1
76

----------
# Test system: Enterovirus C
# Experiment description: Antiviral activity against Poliovirus PV1-LSc/2ab serotype PV1 vaccine-derived infected in […] LLC-MK2 cells assessed as inhibition of viral-replication induced cytopathic effect
# Assay type: functional, organism-based
# Test conditions: PV1-LSc/2ab serotype PV1, LLC-MK2
Reported metric: pEC50
Scale note: pEC50 = -log10(concentration in M).

Item COc1ccc(OCc2ccc(COc3c(Cl)cccc3Cl)cc2)c(Cl)c1 has what recorded pEC50?
7.77

----------
# System: Coxsackievirus A9
# Experiment description: Antiviral activity against Coxsackievirus serotype A9 infected in african green monkey BGMK cells assessed as inhibition of virus induced cytopathic effect after 18 to 24 hrs
# Type: functional, organism-based
# Test conditions: Enterovirus B
Reported metric: pEC50
Scale note: pEC50 = -log10(concentration in M).

Item COc1ccc(OCc2ccc(COc3c(Cl)cccc3Cl)cc2)c(Cl)c1 has what recorded pEC50?
5.42

----------
# System: Enterovirus C
# Experiment description: Antiviral activity against Poliovirus 10691 serotype PV1 obtained from circulating vaccine infected in […] LLC-MK2 cells assessed as inhibition of viral-replication induced cytopathic effect
# Type: functional, organism-based
# Test conditions: 10691 serotype PV1, LLC-MK2
Reported metric: pEC50
Scale note: pEC50 = -log10(concentration in M).

Item COc1ccc(OCc2ccc(COc3c(Cl)cccc3Cl)cc2)c(Cl)c1 has what recorded pEC50?
7.74

----------
# Tested on: Coxsackievirus B4
# Experiment description: Antiviral activity against Coxsackievirus serotype B4 infected in african green monkey BGMK cells assessed as inhibition of virus induced cytopathic effect after 18 to 24 hrs
# Assay type: functional, organism-based
# Test conditions: Enterovirus B
Reported metric: pEC50
Scale note: pEC50 = -log10(concentration in M).

Item COc1ccc(OCc2ccc(COc3c(Cl)cccc3Cl)cc2)c(Cl)c1 has what recorded pEC50?
5.42

----------
# System: Enterovirus C
# Experiment description: Antiviral activity against Poliovirus 10223 serotype PV1 obtained from immunodeficient chronic excretor infected in […] LLC-MK2 cells assessed as inhibition of viral-replication induced cytopathic effect
# Assay type: functional, organism-based
# Test conditions: 10223 serotype PV1, LLC-MK2
Reported metric: pEC50
Scale note: pEC50 = -log10(concentration in M).

Item COc1ccc(OCc2ccc(COc3c(Cl)cccc3Cl)cc2)c(Cl)c1 has what recorded pEC50?
8.00

----------
# System: Enterovirus C
# Experiment description: Antiviral activity against Poliovirus 10238 serotype PV1 obtained from circulating vaccine infected in […] LLC-MK2 cells assessed as inhibition of viral-replication induced cytopathic effect
# Assay type: functional, organism-based
# Test conditions: 10238 serotype PV1, LLC-MK2
Reported metric: pEC50
Scale note: pEC50 = -log10(concentration in M).

Item COc1ccc(OCc2ccc(COc3c(Cl)cccc3Cl)cc2)c(Cl)c1 has what recorded pEC50?
7.85

----------
# Tested on: Enterovirus C
# Experiment description: Antiviral activity against Poliovirus 10692 serotype PV1 obtained from circulating vaccine infected in […] LLC-MK2 cells assessed as inhibition of viral-replication induced cytopathic effect
# Type: functional, organism-based
# Test conditions: 10692 serotype PV1, LLC-MK2
Reported metric: EC50 (µM)
The figure you give is taken to be in µM; do not add the unit.

Item COc1ccc(OCc2ccc(COc3c(Cl)cccc3Cl)cc2)c(Cl)c1 has what recorded EC50?
0.029

----------
# Test system: Enterovirus C
# Experiment description: Antiviral activity against Poliovirus 10235 serotype PV1 obtained from circulating vaccine infected in […] LLC-MK2 cells assessed as inhibition of viral-replication induced cytopathic effect
# Assay type: functional, organism-based
# Test conditions: 10235 serotype PV1, LLC-MK2
Reported metric: pEC50
Scale note: pEC50 = -log10(concentration in M).

Item COc1ccc(OCc2ccc(COc3c(Cl)cccc3Cl)cc2)c(Cl)c1 has what recorded pEC50?
7.74
